Could you please report measured activity coefficient for the items listed next?
- assay-overview: activity coefficient (dimensionless); of the first substance listed, at infinite dilution; xn = mol fraction of the nth substance listed
- measurement-context: 328.2 K; Liquid; Chromatography; x1 = 0
Output: the number by itself.

Ask | So what does the record say about activity coefficient for CCOCC [diethyl ether] + CCCC[N+]1(C)CCCCC1.N#C[S-] ?
Reply | 11.6

Ask | So what does the record say about activity coefficient for CCCC(C)=O [pentan-2-one] + CCCC[N+]1(C)CCCCC1.N#C[S-] ?
Reply | 3.08

Ask | So what does the record say about activity coefficient for COC(C)(C)C [2-methoxy-2-methylpropane] + CCCC[N+]1(C)CCCCC1.N#C[S-] ?
Reply | 12.7

Ask | So what does the record say about activity coefficient for CC(C)=O [acetone] + CCCC[N+]1(C)CCCCC1.N#C[S-] ?
Reply | 1.52

Ask | So what does the record say about activity coefficient for CCCOCCC [dipropyl ether] + CCCC[N+]1(C)CCCCC1.N#C[S-] ?
Reply | 32.9

Ask | So what does the record say about activity coefficient for CCC(=O)CC [pentan-3-one] + CCCC[N+]1(C)CCCCC1.N#C[S-] ?
Reply | 3.09

====

Could you please report measured activity coefficient for the items listed next?
- assay-overview: activity coefficient (dimensionless); of the first substance listed, at infinite dilution; xn = mol fraction of the nth substance listed
- measurement-context: 338.15 K; Liquid; Chromatography; x1 = 0
Output: the number by itself.

Ask | So what does the record say about activity coefficient for CCCCCC [hexane] + CCCC[N+]1(C)CCCCC1.N#C[S-] ?
Reply | 89.3

Ask | So what does the record say about activity coefficient for Cc1ccccc1C [1,2-dimethylbenzene] + CCCC[N+]1(C)CCCCC1.N#C[S-] ?
Reply | 4.21

Ask | So what does the record say about activity coefficient for O [water] + CCCC[N+]1(C)CCCCC1.N#C[S-] ?
Reply | 0.337

Ask | So what does the record say about activity coefficient for C=CCCCCCC [oct-1-ene] + CCCC[N+]1(C)CCCCC1.N#C[S-] ?
Reply | 77.4

Ask | So what does the record say about activity coefficient for CCCCCCCCC [nonane] + CCCC[N+]1(C)CCCCC1.N#C[S-] ?
Reply | 267

====

- assay-overview: activity coefficient (dimensionless); of the first substance listed, at infinite dilution; xn = mol fraction of the nth substance listed
- measurement-context: 338.15 K; Liquid; Chromatography; x1 = 0
Criterion: activity coefficient strictly less than 30. Met: condition met. Not met: condition not met.

Ask | State whether 30 exceeds activity coefficient recorded for CCO [ethanol] + CCCC[N+]1(C)CCCCC1.N#C[S-] .
Reply | condition met

Ask | State whether 30 exceeds activity coefficient recorded for C1CCCCCC1 [cycloheptane] + CCCC[N+]1(C)CCCCC1.N#C[S-] .
Reply | condition not met

Ask | State whether 30 exceeds activity coefficient recorded for Cc1cccc(C)c1 [1,3-dimethylbenzene] + CCCC[N+]1(C)CCCCC1.N#C[S-] .
Reply | condition met

Ask | State whether 30 exceeds activity coefficient recorded for Cc1ccccc1 [toluene] + CCCC[N+]1(C)CCCCC1.N#C[S-] .
Reply | condition met

Ask | State whether 30 exceeds activity coefficient recorded for C1CCCCC1 [cyclohexane] + CCCC[N+]1(C)CCCCC1.N#C[S-] .
Reply | condition not met

Ask | State whether 30 exceeds activity coefficient recorded for CCCCCCCCCC [decane] + CCCC[N+]1(C)CCCCC1.N#C[S-] .
Reply | condition not met

Ask | State whether 30 exceeds activity coefficient recorded for C=CCCCC [hex-1-ene] + CCCC[N+]1(C)CCCCC1.N#C[S-] .
Reply | condition not met

Ask | State whether 30 exceeds activity coefficient recorded for CCCCCCC [heptane] + CCCC[N+]1(C)CCCCC1.N#C[S-] .
Reply | condition not met

Ask | State whether 30 exceeds activity coefficient recorded for c1ccccc1 [benzene] + CCCC[N+]1(C)CCCCC1.N#C[S-] .
Reply | condition met

Ask | State whether 30 exceeds activity coefficient recorded for C1CCCCCCC1 [cyclooctane] + CCCC[N+]1(C)CCCCC1.N#C[S-] .
Reply | condition not met

====

- assay-overview: activity coefficient (dimensionless); of the first substance listed, at infinite dilution; xn = mol fraction of the nth substance listed
- measurement-context: 328.15 K; Liquid; Chromatography; x1 = 0
Class class 1: activity coefficient at least 60. Class class 0: activity coefficient below 60.

Ask | I'd appreciate it if you could say whether CCc1ccccc1 [ethylbenzene] + CCCC[N+]1(C)CCCCC1.N#C[S-] has activity coefficient at least equal to 60.
Reply | class 0

Ask | I'd appreciate it if you could say whether C1CCCCC1 [cyclohexane] + CCCC[N+]1(C)CCCCC1.N#C[S-] has activity coefficient at least equal to 60.
Reply | class 0

Ask | I'd appreciate it if you could say whether C=CCCCCC [1-heptene] + CCCC[N+]1(C)CCCCC1.N#C[S-] has activity coefficient at least equal to 60.
Reply | class 0

Ask | I'd appreciate it if you could say whether C#CCCCCCC [1-octyne] + CCCC[N+]1(C)CCCCC1.N#C[S-] has activity coefficient at least equal to 60.
Reply | class 0

Ask | I'd appreciate it if you could say whether CCCCCCCCC [nonane] + CCCC[N+]1(C)CCCCC1.N#C[S-] has activity coefficient at least equal to 60.
Reply | class 1

====

- assay-overview: activity coefficient (dimensionless); of the first substance listed, at infinite dilution; xn = mol fraction of the nth substance listed
- measurement-context: 348.15 K; Liquid; Chromatography; x1 = 0
readout-type: activity coefficient
Output: the number by itself.

Ask | So what does the record say about activity coefficient for CCc1ccccc1 [ethylbenzene] + CCCC[N+]1(C)CCCCC1.N#C[S-] ?
Reply | 5.15

Ask | So what does the record say about activity coefficient for C=CCCCCCC [oct-1-ene] + CCCC[N+]1(C)CCCCC1.N#C[S-] ?
Reply | 71.5

Ask | So what does the record say about activity coefficient for C=CCCCCC [1-heptene] + CCCC[N+]1(C)CCCCC1.N#C[S-] ?
Reply | 47.9

The reported measurements were obtained from the NIST ThermoML archive (doi:10.1021/je101008y).
